These measurements were taken from paper PMC11005391.

This listing pairs proteins with measured stoichiometry N.
biological target: the molecule itself; test: native gel or EMSA; blue native PAGE, uniform 12% polyacrylamide gel with 3.5% stacking gel, 13.5 ug of each protein loaded, Coomassie-stained bands
// response body must contain only the number

{"protein": "PaUGP K59A (enzyme, UDP-glucose pyrophosphorylase of Pseudomonas aeruginosa (galU), residues 1-279, point mutant of Strep-PaUGP; Same construct as m1; source: E. coli BL21(DE3), purified (Strep-Tactin Sepharose); not shown: Strep-tagII, N-terminal, kept) MIKKCLFPAAGYGTRFLPATKAMPKEMLPVVNKPLIQYAVEEALEAGLSEIGIVTGRGARSLEDHFDISYELEHQIRNTDKEKYLVGIRRLIDECTFAYTRQVEMKGLGHAILTGRPLIGDEPFAVVLADDLCLNLEGDSVLKQMVKLYNQFRCSIVAIQEVPPEETNKYGVIAGEMIRDDIFRVNTMVEKPKPEEAPSNLAIIGRYILTPDIFDLIEQTEPGKGGEIQITDALMKQAQDGCVLAYKFKGKRFDCGSAEGYIEATNFCYENLYKTGKAH", "quantity name": "stoichiometry N", "numeric readout": 4}

Ask: I would be grateful if you could share the reported stoichiometry N for PaUGP Y70F (enzyme, UDP-glucose pyrophosphorylase of Pseudomonas aeruginosa (galU), residues 1-279, point mutant of Strep-PaUGP; Same construct as m1; source: E. coli BL21(DE3), purified (Strep-Tactin Sepharose); not shown: Strep-tagII, N-terminal, kept) MIKKCLFPAAGYGTRFLPATKAMPKEMLPVVNKPLIQYAVEEALEAGLSEIGIVTGRGKRSLEDHFDISFELEHQIRNTDKEKYLVGIRRLIDECTFAYTRQVEMKGLGHAILTGRPLIGDEPFAVVLADDLCLNLEGDSVLKQMVKLYNQFRCSIVAIQEVPPEETNKYGVIAGEMIRDDIFRVNTMVEKPKPEEAPSNLAIIGRYILTPDIFDLIEQTEPGKGGEIQITDALMKQAQDGCVLAYKFKGKRFDCGSAEGYIEATNFCYENLYKTGKAH .
Reply: 4
